molecular target: JNK1 (Homo sapiens); construct: purchased Carna Biosciences; test: JNK1 biochemical assays (one or more of: time resolved fluorescence, Z'-LYTE Cascade, radioactive); settings: Table 2; JNK1 IC50 activity level; read-out: Act. Level
pIC50: −log10 of the molar value.
recorded-endpoint: pIC50

Reported pIC50 ( NC(=O)c1cnc(NCC2CC2)nc1Nc1ccccc1 ) = 6.10 to 6.70

Lab note: measured pIC50 of Cc1cc(Nc2ncc(C(N)=O)c(Nc3ccccc3)n2)n[nH]1 was 6.10 to 6.70

Consider C[C@H](Nc1ncc(C(N)=O)c(N[C@@H]2CCC[C@H](O)C2)n1)c1ccc(F)cc1 . Its measured pIC50 is 5.00 to 6.00

COc1ccccc1Nc1ncc(C(N)=O)c(Nc2ccccc2)n1 has a reported pIC50 of > 6.70

# pIC50 of C[C@]1(O)CCC[C@@H](Nc2nc(N[C@@H]3CCc4ncccc4C3)ncc2C(N)=O)C1 = > 6.70

Entry under test: NC(=O)c1cnc(N[C@H]2CCOc3ccccc32)nc1N[C@@H]1CCC[C@H](O)C1 . Its pIC50 was 6.00 to 6.10

Reported pIC50 of COc1ccc(Nc2ncc(C(N)=O)c(Nc3ccccc3)n2)cn1 : > 6.70

NC(=O)c1cnc(NC2CCCC2)nc1Nc1ccccc1 has a reported pIC50 of > 6.70

Summary for this compound, NC(=O)c1cnc(N[C@@H]2CCc3ncccc3C2)nc1N[C@@H]1CCC[C@H](O)C1 : pIC50 is > 6.70

# pIC50 of COc1ccc(Nc2ncc(C(N)=O)c(Nc3ccccc3)n2)c(C)c1 = > 6.70

For record NC(=O)c1cnc(N[C@H]2CCc3ncccc3C2)nc1N[C@@H]1CCCC[C@H](O)C1 the listed pIC50 is > 6.70

Reported pIC50 ( CC(CNc1ncc(C(N)=O)c(Nc2ccccc2)n1)c1ccccc1 (centres unmarked) ) = 6.10 to 6.70

Input NC(=O)c1cnc(NCc2ccc(F)c(F)c2)nc1Nc1ccccc1 . Output pIC50: 6.10 to 6.70

Entry C[C@]1(O)CCC[C@@H](Nc2nc(N[C@H]3CCc4ncccc4C3)ncc2C(N)=O)C1 ; pIC50 = > 6.70

# pIC50 of NC(=O)c1cnc(NC2CCN(Cc3ccccc3)CC2)nc1Nc1ccccc1 = 6.10 to 6.70

Given item COc1ccc(Nc2ncc(C(N)=O)c(Nc3ccccc3)n2)cc1F , the value recorded as its pIC50 is > 6.70

// sample NC(=O)c1cnc(N2CCC(C(N)=O)CC2)nc1Nc1ccccc1 , its pIC50 was 5.00 to 6.00

Given item CC(C)Nc1nc(N[C@H]2CCc3cnccc3C2)ncc1C(N)=O , the value recorded as its pIC50 is 6.10 to 6.70

Sample COc1cccc(Nc2ncc(C(N)=O)c(Nc3ccccc3)n2)c1 ; pIC50 observed: > 6.70

Record Cc1cccc(Nc2ncc(C(N)=O)c(Nc3ccccc3)n2)c1 , field pIC50: > 6.70

pIC50 recorded for this compound, NC(=O)c1cnc(NC2CCOCC2)nc1Nc1ccc2cn[nH]c2c1 , is > 6.70

Kindly note the recorded pIC50 for CC(Nc1ncc(C(N)=O)c(Nc2ccccc2)n1)c1ccccc1 (centres unmarked) , which is 6.10 to 6.70

For COc1ccccc1CNc1ncc(C(N)=O)c(Nc2ccccc2)n1 the compound record lists pIC50 as 6.10 to 6.70

* * *

molecular target: JNK1 (Homo sapiens, UniProt P45983); construct: purchased Carna Biosciences; assay: JNK1 biochemical assays (one or more of: time resolved fluorescence, Z'-LYTE Cascade, radioactive); conditions: tested in one or more of the JNK1 biochemical assays; read-out: Act. Level (JNK1 biochemical assay IC50 activity level)
Sequence (P45983 whole entry): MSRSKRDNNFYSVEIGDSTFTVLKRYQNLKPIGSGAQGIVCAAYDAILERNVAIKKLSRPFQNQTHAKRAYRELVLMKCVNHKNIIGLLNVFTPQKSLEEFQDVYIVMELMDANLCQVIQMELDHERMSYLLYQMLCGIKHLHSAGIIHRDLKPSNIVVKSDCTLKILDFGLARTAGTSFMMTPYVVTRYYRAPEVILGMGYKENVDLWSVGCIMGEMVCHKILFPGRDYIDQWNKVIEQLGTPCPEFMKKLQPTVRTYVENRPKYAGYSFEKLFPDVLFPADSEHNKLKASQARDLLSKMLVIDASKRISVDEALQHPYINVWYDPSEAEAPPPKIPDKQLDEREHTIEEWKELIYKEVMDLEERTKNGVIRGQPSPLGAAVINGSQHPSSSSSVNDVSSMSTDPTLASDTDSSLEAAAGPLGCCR
pIC50: −log10 of the molar value.
Assignment: determine reported pIC50 for the given molecules.

pIC50 in this record for CCO[C@H]1CC[C@H](Nc2ncc(C(N)=O)c(N[C@H]3CCOC3)n2)CC1 : > 6.70

// C[C@]1(O)CCC[C@@H](Nc2nc(N[C@H]3CC[C@H](OC(F)F)CC3)ncc2C(N)=O)C1 : pIC50 value = > 6.70

// CC(C)CC(=O)N[C@H]1CC[C@@H](Nc2nc(NC3CC3)ncc2C(N)=O)CC1 : pIC50 value = 6.00 to 6.10

Entry COC[C@H]1CC[C@H](Nc2ncc(C(N)=O)c(N[C@H]3CCC[C@@H]3O)n2)CC1 — recorded pIC50 = > 6.70

Looking up CCO[C@H]1CC[C@H](Nc2ncc(C(N)=O)c(N[C@H]3CCC[C@@H]3O)n2)C1 , I see its pIC50 listed as 6.10 to 6.70

# molecule CN(C)C(=O)[C@H]1CC[C@H](Nc2ncc(C(N)=O)c(N[C@@H]3CCCOC3)n2)CC1 ; its pIC50 = > 6.70

Item: CO[C@H]1CC[C@H](Nc2ncc(C(N)=O)c(NC3CCOCC3)n2)CC1 | pIC50: 6.10 to 6.70

In plain terms, NC(=O)c1cnc(NC2CCOCC2)nc1N[C@@H]1CCC[C@H]1O has a documented pIC50 of > 6.70

* * *

target: JNK1 (Homo sapiens); construct: purchased Carna Biosciences; assay: JNK1 biochemical assays (one or more of: time resolved fluorescence, Z'-LYTE Cascade, radioactive); conditions: tested in one or more of the JNK1 biochemical assays; read-out: Act. Level (JNK1 biochemical assay IC50 activity level)
pIC50: −log10 of the molar value.
recorded-endpoint: pIC50

For reference, reported pIC50 for CO[C@H]1CC[C@H](Nc2ncc(C(N)=O)c(N[C@H]3CCCNC3)n2)CC1 stands at 6.00 to 6.10

Looking up NC(=O)c1cnc(N[C@H]2CC[C@H](OCC(F)(F)F)CC2)nc1N[C@@H]1CCCOC1 , I found its pIC50 recorded as > 6.70

pIC50 in this record for CCO[C@H]1CC[C@H](Nc2ncc(C(N)=O)c(NC3CCC3)n2)CC1 : > 6.70

Entry CO[C@H]1CC[C@H](Nc2ncc(C(N)=O)c(N[C@H]3CCNC(=O)C3)n2)CC1 , pIC50 reported as > 6.70

Item: NC(=O)c1cnc(NC2CCCC2)nc1N[C@H]1CC[C@@H](O)CC1 | pIC50: > 6.70

# pIC50 of CO[C@H]1CC[C@@H](Nc2nc(N[C@H]3CC[C@H](O)C3)ncc2C(N)=O)CC1 = > 6.70

The molecule listed as CN(C)C(=O)[C@H]1CC[C@@H](Nc2nc(NC3CCOCC3)ncc2C(N)=O)CC1 shows pIC50 equal to 6.10 to 6.70

get_value(item= CCO[C@H]1CC[C@H](Nc2ncc(C(N)=O)c(NCCO)n2)CC1 , readout=pIC50) returns > 6.70

* * *

target: JNK1 (Homo sapiens); construct: purchased Carna Biosciences; assay: JNK1 biochemical assays (one or more of: time resolved fluorescence, Z'-LYTE Cascade, radioactive); conditions: one or more of the JNK1 biochemical assays; read-out: Act. Level (JNK1 IC50 activity level)
recorded-endpoint: IC50

IC50 recorded for this compound, CCO[C@H]1CC[C@H](Nc2ncc(C(N)=O)c(NC34CCC(C3)C4)n2)CC1 [Example 462] , is < 200 nM

Recorded result, CCO[C@H]1CC[C@H](Nc2ncc(C(N)=O)c(N[C@@H]3CCC[C@H]3CO)n2)CC1 [Example 259] , IC50: < 200 nM

# IC50 (compound: C[C@@H](Nc1nc(N[C@H]2CC[C@H](O)CC2)ncc1C(N)=O)C1CCC1 [Example 298] ) is < 200 nM

Entry CC(C)(C)Nc1ncc(C(N)=O)c(N[C@@H]2CCC[C@H]2CO)n1 [Example 330] ; IC50 = < 200 nM

Noted for CCCC(C)(C)Nc1nc(N[C@H]2CC[C@H](O)CC2)ncc1C(N)=O [Example 390] : its IC50 reads < 200 nM

Summary for this compound, CC1(Nc2nc(N[C@@H]3CCC[C@H](O)C3)ncc2C(N)=O)CCC1 [Example 404] : IC50 is < 200 nM

Value of IC50 reported for the compound NC(=O)c1cnc(N[C@H]2CC[C@H](O)CC2)nc1NCCC1CCC1 [Example 219] is < 200 nM

Entry under test: CCO[C@H]1CC[C@H](Nc2ncc(C(N)=O)c(N[C@H](C)C3CCC3)n2)CC1 [Example 294] . Its IC50 was 1000 to 10000 nM

The compound CC(C)Nc1nc(NC2CCOCC2)ncc1C(N)=O [Example 222] showed IC50 equal to 200 to 800 nM

// sample NC(=O)c1cnc(N[C@H]2CC[C@H](O)CC2)nc1NC1COC1 [Example 235] , its IC50 was < 200 nM

Summary for this compound, CCO[C@H]1CC[C@H](Nc2ncc(C(N)=O)c(NC3C4CC3C4)n2)CC1 (some centres unmarked) [Example 476] : IC50 is < 200 nM

Looking up CC(C)CNc1ncc(C(N)=O)c(N[C@@H]2CCC[C@H](O)C2)n1 [Example 495] , I found its IC50 recorded as < 200 nM

// field: IC50; key: CC1(Nc2ncc(C(N)=O)c(N[C@@H]3CCC[C@](C)(O)C3)n2)CCC1 [Example 353] ; value = < 200 nM

Given item C[C@@H]1CC[C@@H](Nc2nc(NC3CCOCC3)ncc2C(N)=O)C[C@H]1O [Example 208] , the value recorded as its IC50 is < 200 nM

Sure, the documented IC50 for CC1CCC1Nc1nc(N[C@H]2CC[C@H](O)CC2)ncc1C(N)=O (some centres unmarked) [Example 246] is < 200 nM

Record C[C@@H](Nc1nc(N[C@H]2CC[C@H](OCC(F)(F)F)CC2)ncc1C(N)=O)C1CC1 [Example 409] . Reported IC50: < 200 nM

CN(C)C(=O)[C@H]1CC[C@H](Nc2ncc(C(N)=O)c(NC3(C)CCC3)n2)CC1 [Example 414] has a reported IC50 of < 200 nM
